- Tested on: HBV rcDNA in HepDE19 cells
- experimental_details: HepDE19 assay with bDNA quantitation of HBV rcDNA
- Format: cell-based, hepatitis B virus
- protocol_conditions: Hepatitis B virus, HepDE19, HepDE19 assay, inhibition of rcDNA formation, bDNA quantitation; read-out: DE-19bDNA EC50
pEC50: −log10 of the molar value.
# pEC50 annotations

compound: CN(C(=O)c1ccc(C(F)(F)F)c(F)c1)C1COCc2[nH]c(=O)c3cc(C#N)ccc3c21 (racemic)
pEC50: 5.55

compound: CN(C(=O)C1Cc2ccc(F)cc21)[C@@H]1COCc2[nH]c(=O)c3cc(F)c(F)cc3c21 (stereo partly shown)
pEC50: 5.02

compound: CN(C(=O)c1cc2cc(F)c(F)cc2[nH]1)[C@@H]1COC(O)c2[nH]c(=O)c3cc(F)c(F)cc3c21 (stereo partly shown)
pEC50: 8.00

compound: CN(C(=O)c1ccn2ccccc12)[C@@H]1COCc2[nH]c(=O)c3cc(F)c(F)cc3c21
pEC50: 5.19

compound: Cc1nn(C(F)F)c2ccc(C(=O)N(C)[C@@H]3COCc4[nH]c(=O)c5cc(F)c(F)cc5c43)cc12
pEC50: 7.70

compound: CN(C(=O)c1cccc(C(C)(C)O)c1)[C@@H]1COCc2[nH]c(=O)c3cc(F)c(F)cc3c21
pEC50: 5.35

compound: CN(C(=O)c1ccc(C(F)(F)F)nc1)[C@@H]1COCc2[nH]c(=O)c3cc(F)c(F)cc3c21
pEC50: 6.92

compound: CN(C(=O)c1ccc(-c2ccccc2F)cc1)[C@@H]1COCc2[nH]c(=O)c3cc(F)c(F)cc3c21
pEC50: 4.71

compound: CN(C(=O)c1cccc(Oc2ccc(F)cc2)c1)[C@@H]1COCc2[nH]c(=O)c3cc(F)c(F)cc3c21
pEC50: 5.12

compound: CN(C(=O)c1cc(F)c(C(F)(F)F)c(F)c1)[C@@H]1COCc2[nH]c(=O)c3cc(F)c(F)cc3c21
pEC50: 8.00

compound: CN(C(=O)c1ccc2ncoc2c1)[C@@H]1COCc2[nH]c(=O)c3cc(F)c(F)cc3c21
pEC50: 5.64

compound: CN(C(=O)c1cccc(-c2cccc(F)c2)c1)[C@@H]1COCc2[nH]c(=O)c3cc(F)c(F)cc3c21
pEC50: 5.64

compound: CN(C(=O)[C@H](O)c1ccccc1)[C@@H]1COCc2[nH]c(=O)c3cc(F)c(F)cc3c21
pEC50: 5.00

compound: CN(C(=O)c1ccc2[nH]ncc2c1)C1CNCc2[nH]c(=O)c3cc(F)c(F)cc3c21 (single isomer, unassigned)
pEC50: 5.42

compound: CN(C(=O)c1cc2cc(F)c(F)cc2[nH]1)[C@@H]1COC(F)c2[nH]c(=O)c3cc(F)c(F)cc3c21 (stereo partly shown)
pEC50: 8.00

compound: CN(C(=O)c1cc2cnc(Cl)cc2[nH]1)[C@@H]1COCc2[nH]c(=O)c3cc(F)c(F)cc3c21
pEC50: 7.30

compound: COc1ccc2[nH]c(C(=O)N(C)[C@@H]3COCc4[nH]c(=O)c5cc(F)c(F)cc5c43)cc2c1
pEC50: 7.15

compound: CN(C(=O)c1ccc(OC(F)(F)F)c(F)c1)[C@@H]1COCc2[nH]c(=O)c3cc(F)c(F)cc3c21
pEC50: 7.40

compound: CN(C(=O)c1ccc2nc[nH]c2c1)[C@@H]1COCc2[nH]c(=O)c3cc(F)c(F)cc3c21
pEC50: 4.91

compound: CN(C(=O)c1cncc(F)c1)[C@@H]1COCc2[nH]c(=O)c3cc(F)c(F)cc3c21
pEC50: 5.15

compound: CN(C(=O)c1ccc2nccnc2c1)[C@@H]1COCc2[nH]c(=O)c3cc(F)c(F)cc3c21
pEC50: 5.42

compound: CN(C(=O)c1cccc(S(C)(=O)=O)c1)[C@@H]1COCc2[nH]c(=O)c3cc(F)c(F)cc3c21
pEC50: 5.05
